Data provenance is ChEMBL document CHEMBL3393033.

# PROTOCOL: Toxicity in human HuH7 cells infected with genotype 1b Hepatitis C virus bicistronic replicon Con1 assessed as reduction in GAPDH RNA after 3 days by RT-PCR analysis
# Assay type: cell-based, Huh-7
RESULT_TYPE: IC50 at 3 days

Sample answers from the record:
>  <SMILES_DATA>
CCOc1cnc2c(c1)c(C#N)c(-c1ccc(S(=O)(=O)N[C@@H](C)C(F)(F)F)cn1)n2C1CCC1

>  <IC50 at 3 days>
> 10 µM

$$$$
>  <SMILES_DATA>
C[C@H](NS(=O)(=O)c1ccc(-c2c(C#N)c3cc(Cl)cnc3n2C2CCCC2)nc1)C(F)(F)F

>  <IC50 at 3 days>
> 10 µM

$$$$
>  <SMILES_DATA>
C[C@H](NS(=O)(=O)c1ccc(-c2c(C#N)c3cc(Cl)cnc3n2C2CCC2)nc1)C(F)(F)F

>  <IC50 at 3 days>
> 10 µM

$$$$

The record that follows has no IC50 at 3 days shown yet.
Sure, the documented IC50 at 3 days for `COc1cnc2c(c1)c(C#N)c(-c1ccc(S(=O)(=O)N[C@@H](C)C(F)(F)F)cn1)n2CC1CC1` is 7.9 µM
